Data provenance is PubChem BioAssay (EPA / NIEHS).

# method.description: CCTE_Shafer_MEA_dev_per_burst_interspike_interval: CCTE's Neural Network Formation Assay for Burst Interspike Interval, Shafer Lab (AID 2284044);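 also: mean spike spacing inside bursts as AUC over recordings on days 5 7 9 12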
Active and inactive are the calls of the source. The calls were made as follows: active = hit-call score of the fitted dose curve at least 0.9, where 1 is the maximum; inactive = score below 0.9.
measure.name: outcome

>  <structure>
OC(Cn1cncn1)(Cn1cncn1)c1ccc(F)cc1F

>  <observed.result>
inactive

$$$$
>  <structure>
NCC(F)(F)C(F)(F)C(F)(F)C(F)(F)F

>  <observed.result>
inactive

$$$$
>  <structure>
NC(=O)N1c2ccccc2C=Cc2ccccc21

>  <observed.result>
inactive

$$$$
>  <structure>
c1ccc2cc3ccccc3cc2c1

>  <observed.result>
inactive

$$$$
>  <structure>
NNC(=O)c1ccncc1

>  <observed.result>
inactive

$$$$
>  <structure>
OCCC(F)(F)C(F)(F)C(F)(F)C(F)(F)F

>  <observed.result>
inactive

$$$$
>  <structure>
FC(F)(F)C(F)(F)C(F)(F)C(F)(F)C(F)(F)C(F)(F)I

>  <observed.result>
inactive

$$$$
